assay-system: HIV-1 JR-CSF Env D325A (HIV-1 isolate JR-CSF) (UniProt P20871)
procedure-summary: cell-based or functional assay
Known Fold IC50 increase relative to wild-type of a selection of binders
quantity: Fold IC50 increase relative to wild-type

binder="PGT-125 (antibody, V domains shown) VH: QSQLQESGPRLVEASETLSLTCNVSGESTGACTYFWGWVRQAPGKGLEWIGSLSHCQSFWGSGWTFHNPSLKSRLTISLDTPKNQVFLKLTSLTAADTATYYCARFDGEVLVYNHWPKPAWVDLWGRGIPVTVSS VL: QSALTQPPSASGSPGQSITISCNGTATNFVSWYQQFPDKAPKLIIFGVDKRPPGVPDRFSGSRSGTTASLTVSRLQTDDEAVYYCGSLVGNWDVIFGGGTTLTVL" measured_result="0.4 fold"
binder="PGT-123 (antibody, V domains shown) VH: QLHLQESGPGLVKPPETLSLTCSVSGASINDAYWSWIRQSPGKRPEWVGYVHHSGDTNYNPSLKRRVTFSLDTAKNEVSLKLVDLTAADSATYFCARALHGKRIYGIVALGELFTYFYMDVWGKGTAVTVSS VL: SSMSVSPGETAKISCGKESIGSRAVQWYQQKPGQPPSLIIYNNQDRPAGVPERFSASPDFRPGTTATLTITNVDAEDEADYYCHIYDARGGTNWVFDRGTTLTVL" measured_result="64 fold"
binder="PGT-128 (antibody, V domains shown) VH: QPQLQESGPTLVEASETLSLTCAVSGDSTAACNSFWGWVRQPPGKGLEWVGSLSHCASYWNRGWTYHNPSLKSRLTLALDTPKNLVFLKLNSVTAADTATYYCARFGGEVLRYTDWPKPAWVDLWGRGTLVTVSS VL: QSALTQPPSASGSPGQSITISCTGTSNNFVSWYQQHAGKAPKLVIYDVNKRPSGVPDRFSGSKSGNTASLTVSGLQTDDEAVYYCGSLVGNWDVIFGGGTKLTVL" measured_result="0.5 fold"
